# Test system: BT-549 breast
# EXPERIMENTAL PROTOCOL: NCI-60 one-dose screen, 48 h (100 = growth as untreated, 0 = no growth, -100 = all killed)
# ASSAY CONTEXT: 10 µM unless noted
This is part of a sample that, as a whole, favours compounds with a hit. Of some 83,000 tested, about 20% had one in any assay.
Criterion: growth strictly under 80%. Met: yes (1). Not met: no (0).

The examples below pair each entry with its known result.
- COMPOUND: "COc1ccc(Cl)cc1NC(=O)c1cc2c(n1C)-c1nc(NC(=O)C(C)(C)C)sc1CC2"
  SYSTEM: "BT-549 breast"
  LABEL VALUE: "no (0)"
- COMPOUND: "COc1ccc(-c2nnc(NC(=O)CN3CCN(c4cc5c(cc4F)c(=O)c(C(=O)O)cn5C4CC4)CC3)s2)cc1OC"
  SYSTEM: "BT-549 breast"
  LABEL VALUE: "no (0)"
- COMPOUND: "Nc1nc(-c2cc3c(cc2Cl)NC(=O)/C3=C/c2ccccc2)cs1"
  SYSTEM: "BT-549 breast"
  LABEL VALUE: "yes (1)"
- COMPOUND: "COC(=O)c1ccc2c(c1)Oc1ccc(Cl)cc1-c1cc(C)nn1-2"
  SYSTEM: "BT-549 breast"
  LABEL VALUE: "no (0)"
- COMPOUND: "COc1ccc2c(c1)OC(N)=C(C#N)C2c1ccc(F)cc1 (stereo not given)"
  SYSTEM: "BT-549 breast"
  LABEL VALUE: "yes (1)"

Query block: Strictly below 80%: is that where growth of COc1ccc(-c2nn(-c3ccc(NC(=O)Nc4ccc(Cl)c(Cl)c4)cc3)cc2-c2ccncc2)cc1Cl sits?
Result block: yes (1)

Query block: Does this compound meet the criterion growth < 80%? CC1OC(n2c3ccccc3c3c4c(c5c6ccccc6[nH]c5c32)C(=O)N(CCN[C@@H]2CCC[C@H]2N)C4=O)CC(O)C1O (stereo not given in full)
Result block: yes (1)

Query block: Threshold test, growth < 80%: O=C(N/N=C1\SCC(=O)N1c1ccccc1)c1cc(-c2cc3ccccc3o2)nn1-c1ccccc1
Result block: no (0)

###

The following compounds are shown together with reported growth values.
# System: HOP-92 NSCLC
# EXPERIMENTAL PROTOCOL: NCI-60 one-dose screen, 48 h (100 = growth as untreated, 0 = no growth, -100 = all killed)
# ASSAY CONTEXT: 10 µM unless noted
About 83,000 compounds went through this panel and 20% of them were active in at least one assay; those are over-represented in the sample as a whole. The source made the active and inactive calls. Rule for the calls: active = growth percent below 10; inactive = the rest.

Some compounds with known growth results, for comparison:
- COMPOUND: "COc1ccc2c(-c3ccc(F)cc3)c(C#N)c(=NC(C)=O)oc2c1"
  VALUE OBSERVED: "70.6% (inactive)"
- COMPOUND: "CCN(CC)CCNCC(O)Cc1ccc(OC)cc1 (stereo unspecified)"
  VALUE OBSERVED: "81.4% (inactive)"
- COMPOUND: "CS(=O)(=O)Nc1cccc(-c2ccc3ncnc(Nc4ccc(F)c(Cl)c4)c3c2)c1"
  VALUE OBSERVED: "34.6% (inactive)"
- COMPOUND: "Cc1ccc[n+](CC(=O)c2cccc3ccccc23)c1"
  VALUE OBSERVED: "97.1% (inactive)"
- COMPOUND: "COc1ccc(N)c(S)c1"
  VALUE OBSERVED: "88.4% (inactive)"

Query block: Form field: reported growth of O=C1/C(=C/c2cccc3cnccc23)Cc2cc(F)ccc21
Result block: 75.3% (inactive)
